Give Ki for every item shown.
// units = nM; emit number, no label

Input: Hello, I am looking for reported Ki with BCL-xL (Homo sapiens, UniProt Q07817) for O=C(NS(=O)(=O)c1ccc(N[C@@H](CSc2ccccc2)C[C@H]2CCCN2CCO)c(S(=O)(=O)C(F)(F)F)c1)c1ccc(N2CCC([C@@H](O)c3ccccc3-c3ccc(Cl)cc3)CC2)cc1 . Could you help?
Output: 0.24

Input: Hello, I am looking for reported Ki with BCL-xL (Homo sapiens, UniProt Q07817) for O=C(NS(=O)(=O)c1ccc(N[C@@H](CSc2ccccc2)C[C@@H]2CCCN2CCO)c(S(=O)(=O)C(F)(F)F)c1)c1ccc(N2CCC([C@@H](O)c3ccccc3-c3ccc(Cl)cc3)CC2)cc1 . Could you help?
Output: 0.07

Input: Hello, I am looking for reported Ki with BCL-xL (Homo sapiens, UniProt Q07817) for CN(CCO)CC[C@H](CSc1ccccc1)Nc1ccc(S(=O)(=O)NC(=O)c2ccc(N3CCC([C@@H](O)c4ccccc4-c4ccc(C(F)(F)F)cc4)CC3)cc2)cc1S(=O)(=O)C(F)(F)F . Could you help?
Output: 0.07

Input: Hello, I am looking for reported Ki with BCL-xL (Homo sapiens, UniProt Q07817) for CO[C@@H](c1ccccc1-c1ccc(Cl)cc1)C1CCN(c2ccc(C(=O)NS(=O)(=O)c3ccc(N[C@@H](CSc4ccccc4)C[C@H]4CCCN4CCO)c(S(=O)(=O)C(F)(F)F)c3)cc2)CC1 . Could you help?
Output: 0.32

Input: Hello, I am looking for reported Ki with BCL-xL (Homo sapiens, UniProt Q07817) for O=C(NS(=O)(=O)c1ccc(N[C@@H](CSc2ccccc2)C[C@H]2CCCN2CCCO)c(S(=O)(=O)C(F)(F)F)c1)c1ccc(N2CCC([C@@H](O)c3ccccc3-c3ccc(Cl)cc3)CC2)cc1 . Could you help?
Output: 0.45

Input: Hello, I am looking for reported Ki with BCL-xL (Homo sapiens, UniProt Q07817) for O=C(NS(=O)(=O)c1ccc(N[C@@H](CSc2ccccc2)C[C@@H]2CCCN2)c(S(=O)(=O)C(F)(F)F)c1)c1ccc(N2CCC([C@@H](O)c3ccccc3-c3ccc(C(F)(F)F)cc3)CC2)cc1 . Could you help?
Output: 0.15

Values compiled from patent US20230250077A1.
